System: HeLa cells
Experiment: Cell cycle analysis with HeLa cells
Assay type: cell-based, human
Details: 18 hr, 120 nM
metric: Percent in Cell Cycle Phase Apop
Your reply should be a number followed by the unit it is expressed in.

Prompt line: # return recorded Percent in Cell Cycle Phase Apop for input CNCCCOc1cc(F)c(-c2c(Cl)nc3ncnn3c2NCC(F)(F)F)c(F)c1.Cl [Example 3a]
Response line: 30%

Prompt line: Identify measured Percent in Cell Cycle Phase Apop associated with CNCCCOc1cc(F)c(-c2c(Cl)nc3ncnn3c2N[C@@H](C)C(F)(F)F)c(F)c1.Cl [Example 2a]
Response line: 39%

Prompt line: Please look at this compound and report its Percent in Cell Cycle Phase Apop: CN(C)CCCOc1cc(F)c(-c2c(Cl)nc3ncnn3c2NCC(F)(F)F)c(F)c1.Cl [Example 4a]
Response line: 27%

Others:
Prompt line: Give Percent in Cell Cycle Phase Apop for the following compound: C[C@H](Nc1c(-c2c(F)cc(OCCCN(C)C)cc2F)c(Cl)nc2ncnn12)C(F)(F)F.Cl [Example 1a]
Response line: 28%

###

Tested on: HeLa cells
Experiment: Cell cycle analysis with HeLa cells
Format: cell-based, human
Conditions: 18 hr, 20 nM
Each record here notes measured Percent in Cell Cycle Phase >4N.
Numeric answer only, unit % assumed.

Prompt line: Give Percent in Cell Cycle Phase >4N for C[C@H](Nc1c(-c2c(F)cc(OCCCN(C)C)cc2F)c(Cl)nc2ncnn12)C(F)(F)F.Cl
Response line: 2

Prompt line: Given the compound CNCCCOc1cc(F)c(-c2c(Cl)nc3ncnn3c2N[C@@H](C)C(F)(F)F)c(F)c1.Cl , write its reported Percent in Cell Cycle Phase >4N.
Response line: 2

---
Prompt line: Provide one value: measured Percent in Cell Cycle Phase >4N of COc1cc2c(c(OC)c1OC)-c1ccc(OC)c(=O)cc1[C@@H](NC(C)=O)CC2 [Colchicine, reference compound]
Response line: 2

Prompt line: Note down Percent in Cell Cycle Phase >4N recorded for CNCCCOc1cc(F)c(-c2c(Cl)nc3ncnn3c2NCC(F)(F)F)c(F)c1.Cl
Response line: 1

Prompt line: Tell me its Percent in Cell Cycle Phase >4N given CN(C)CCCOc1cc(F)c(-c2c(Cl)nc3ncnn3c2NCC(F)(F)F)c(F)c1.Cl as the entry.
Response line: 2

###

Percent in Cell Cycle Phase G2/M values for the compounds below.
Tested on: HeLa cells
Test: Cell cycle analysis with HeLa cells
Assay type: cell-based, human
Settings: 18 hr, 70 nM
Hi! Could you send only the number? It should be in %, unit omitted.

Prompt line: Tell me measured Percent in Cell Cycle Phase G2/M for CNCCCOc1cc(F)c(-c2c(Cl)nc3ncnn3c2N[C@@H](C)C(F)(F)F)c(F)c1.Cl [Example 2a] please.
Response line: 57

Continuing:
Prompt line: Entry CN(C)CCCOc1cc(F)c(-c2c(Cl)nc3ncnn3c2NCC(F)(F)F)c(F)c1.Cl [Example 4a] needs its Percent in Cell Cycle Phase G2/M filled in; supply it.
Response line: 60

Prompt line: Indicate the recorded Percent in Cell Cycle Phase G2/M value for this compound: CNCCCOc1cc(F)c(-c2c(Cl)nc3ncnn3c2NCC(F)(F)F)c(F)c1.Cl [Example 3a]
Response line: 61

Prompt line: Return Percent in Cell Cycle Phase G2/M (reported value) for this compound: C[C@H](Nc1c(-c2c(F)cc(OCCCN(C)C)cc2F)c(Cl)nc2ncnn12)C(F)(F)F.Cl [Example 1a]
Response line: 57
